Field: AC50. Provide a value for each of the molecules that follow.
Target: Cytochrome P450 1A2 (Homo sapiens) (UniProt P05177)
Sequence (P05177 whole entry, looked up): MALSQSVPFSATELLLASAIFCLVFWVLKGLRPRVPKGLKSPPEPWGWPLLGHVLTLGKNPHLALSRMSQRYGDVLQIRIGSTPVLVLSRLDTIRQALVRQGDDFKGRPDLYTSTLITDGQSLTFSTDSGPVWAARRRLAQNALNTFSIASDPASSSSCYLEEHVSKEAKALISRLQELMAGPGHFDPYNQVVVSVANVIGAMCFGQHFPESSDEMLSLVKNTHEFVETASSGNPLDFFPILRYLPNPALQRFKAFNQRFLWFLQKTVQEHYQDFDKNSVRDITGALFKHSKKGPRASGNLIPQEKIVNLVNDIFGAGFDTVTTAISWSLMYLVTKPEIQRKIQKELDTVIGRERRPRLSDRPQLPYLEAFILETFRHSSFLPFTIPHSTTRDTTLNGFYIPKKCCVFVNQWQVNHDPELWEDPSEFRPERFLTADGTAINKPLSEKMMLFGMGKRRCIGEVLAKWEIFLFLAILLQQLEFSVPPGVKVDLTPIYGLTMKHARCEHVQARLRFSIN
Assay: Cytochrome panel assay with activity outcomes
Details: recombinant CYP, pro-luciferin dealkylation, luminescence, p450-cyp1a2; series mostly up to 57.1 µM
Screen size: about 16,000 compounds; about 5,700 (36%) were called active. Inconclusive results (about 24%) are left out. The list shows a part of the results.

Give the reported AC50 for this molecule. `O=C(Nc1cccc(C(F)(F)F)c1)c1n[nH]c(Cn2cncn2)n1`
126 nM (active)

Give the reported AC50 for this molecule. CCOC(=O)C(C)n1cnc2c(oc3ccccc32)c1=O (centres undefined)
5620 nM (active)

Give the reported AC50 for this molecule. `CSc1nc(N)nc(-c2cccs2)c1C#N`
2000 nM (active)

Give the reported AC50 for this molecule. `CSc1nc(C2CC2)cc(-c2cccs2)c1C#N`
316 nM (active)

----------
Target: Cytochrome P450 1A2 (Homo sapiens) (UniProt P05177)
Test: Cytochrome panel assay with activity outcomes
Conditions: recombinant CYP, pro-luciferin dealkylation, luminescence, p450-cyp1a2; series mostly up to 57.1 µM
Out of some 16,000 compounds screened, about 5,700 (36%) were called active. Another 24% or so got no clear call; they are omitted. Calls follow the shape of the dose curve; as a rule, active = well fitted curve in the direction sought with a large enough effect; inconclusive = small, poorly fitted or top-dose-only effect, or effect the other way; inactive = no such curve, though single readings can be large or run the other way. Some of the results follow.
Outcomes you can answer with include only these: Yes (active), No (inactive)

What classification did O=C(CSc1nnc(-c2ccc(Cl)cc2Cl)n1C1CCCCC1)NC1CCS(=O)(=O)C1 (configuration not stated) end up with in this test?
No

What classification did `N#Cc1cc(N)ccc1Sc1ccc(Cl)cc1` end up with in this test?
Yes

What classification did `O=c1c(-c2nc3ccccc3s2)cccn1Cc1ccccc1` end up with in this test?
Yes

What classification did `C=CCn1c(-c2cccn(Cc3ccccc3)c2=O)n[nH]c1=S` end up with in this test?
No

What classification did `CCOC(=O)N1CCN(S(=O)(=O)c2ccc3[nH]cc(C(=O)O)c(=O)c3c2)CC1` end up with in this test?
No

What classification did `CN1CCN(S(=O)(=O)c2ccc3[nH]cc(C(=O)O)c(=O)c3c2)CC1` end up with in this test?
No

What classification did `CCn1c(SCC(=O)NC2CCCCC2)nnc1-c1cc2cccc(OC)c2o1` end up with in this test?
Yes

What classification did `CSc1ccc(S(=O)(=O)Nc2ccc3c4c(cccc24)CC3)cc1` end up with in this test?
Yes

What classification did `CS(=O)(=O)c1cnc2c(-c3ccc(F)cc3)cnn2c1N` end up with in this test?
Yes

What classification did `Cc1nc2cnc(N(C)C)nc2n(CCC#N)c1=O` end up with in this test?
Yes

What classification did `Nc1ccc(CCNc2ncnc3c2ncn3[C@@H]2O[C@@H](CO)[C@H](O)[C@@H]2O)cc1` end up with in this test?
No

What classification did `Cn1c(CNS(=O)(=O)c2ccc(F)cc2)n[nH]c1=S` end up with in this test?
No

What classification did `COC(=O)[C@@H]1C[C@H]1[C@@H](NC(=O)c1cccnc1)c1ccccc1` end up with in this test?
Yes

What classification did `CN(C)c1ncc2ncc(=O)n(CCC#N)c2n1` end up with in this test?
Yes

What classification did CCn1c(SCC(=O)NC2CCCc3ccccc32)nnc1-c1cccs1 (configuration not stated) end up with in this test?
No

What classification did `O=C(N/N=C/c1ccc(Sc2nc3ccccc3s2)c([N+](=O)[O-])c1)c1ccccn1` end up with in this test?
No

What classification did `CC1(C)OC(=O)C(=CNc2cccc(O)c2)C(=O)O1` end up with in this test?
Yes
